Tgt: T1, Gal4 transcriptional activation domain (AD) fused in frame with AR (yeast, UniProt P10275 1-920, limits assumed)
T1 sequence (looked up): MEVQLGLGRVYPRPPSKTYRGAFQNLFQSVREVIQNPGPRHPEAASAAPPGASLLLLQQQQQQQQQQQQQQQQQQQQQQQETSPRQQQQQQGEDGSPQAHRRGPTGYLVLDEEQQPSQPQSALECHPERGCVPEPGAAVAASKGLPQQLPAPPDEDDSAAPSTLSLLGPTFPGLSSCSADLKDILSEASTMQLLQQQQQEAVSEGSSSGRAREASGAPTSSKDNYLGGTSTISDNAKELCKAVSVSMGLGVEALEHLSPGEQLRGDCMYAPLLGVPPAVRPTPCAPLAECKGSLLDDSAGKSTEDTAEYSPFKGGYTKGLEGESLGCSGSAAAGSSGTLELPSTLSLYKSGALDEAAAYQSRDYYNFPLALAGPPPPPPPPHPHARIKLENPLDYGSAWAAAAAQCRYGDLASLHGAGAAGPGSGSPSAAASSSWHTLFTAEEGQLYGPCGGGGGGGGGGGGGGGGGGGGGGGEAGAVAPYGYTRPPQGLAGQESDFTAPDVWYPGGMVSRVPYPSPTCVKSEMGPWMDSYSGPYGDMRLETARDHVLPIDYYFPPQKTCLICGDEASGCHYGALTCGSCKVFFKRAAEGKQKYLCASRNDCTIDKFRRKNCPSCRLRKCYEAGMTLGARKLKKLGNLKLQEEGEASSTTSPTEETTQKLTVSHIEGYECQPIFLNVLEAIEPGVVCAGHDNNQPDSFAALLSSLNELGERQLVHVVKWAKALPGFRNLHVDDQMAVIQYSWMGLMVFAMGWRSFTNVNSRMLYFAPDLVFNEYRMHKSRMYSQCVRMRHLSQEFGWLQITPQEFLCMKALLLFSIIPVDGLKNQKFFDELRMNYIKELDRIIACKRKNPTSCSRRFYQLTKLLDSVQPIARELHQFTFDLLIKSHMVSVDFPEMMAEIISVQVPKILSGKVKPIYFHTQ
Protocol Description: cell-based or functional assay
Mark each entry fulfilled if its β-galactosidase activity (yeast two-hybrid), Test sits below 1, and not fulfilled for all others.

{"Binder": "B18C4 (peptide) MKLLSSIEQACDICRLKKLKCSKEKPKCAKCLKNNWECRYSPKTKRSPLTRAHLTEVESRLERLEQLFLLIFPREDLDMILKMDSLQDIKALLTGLFVQDNVNKDAVTDRLASVETDMPLTLRQHRISATSSSEESSNKGQRQLTVSEFDSPWVWFGGEPGLNLLDLQPS", "Group Label": "fulfilled"}
{"Binder": "M4D1 (peptide) MKLLSSIEQACDICRLKKLKCSKEKPKCAKCLKNNWECRYSPKTKRSPLTRAHLTEVESRLERLEQLFLLIFPREDLDMILKMDSLQDIKALLTGLFVQDNVNKDAVTDRLASVETDMPLTLRQHRISATSSSEESSNKGQRQLTVSEFRFPFHEMVREWESMGLERVRYAEP", "Group Label": "fulfilled"}
{"Binder": "B23H12 (peptide) MKLLSSIEQACDICRLKKLKCSKEKPKCAKCLKNNWECRYSPKTKRSPLTRAHLTEVESRLERLEQLFLLIFPREDLDMILKMDSLQDIKALLTGLFVQDNVNKDAVTDRLASVETDMPLTLRQHRISATSSSEESSNKGQRQLTVSEFPELLAMTRWGRHAALLEPQRLPPPRTTTQPQTEFERMFFFTRPMRTTGLLDLQPS", "Group Label": "not fulfilled"}
{"Binder": "M7B1 (peptide) MKLLSSIEQACDICRLKKLKCSKEKPKCAKCLKNNWECRYSPKTKRSPLTRAHLTEVESRLERLEQLFLLIFPREDLDMILKMDSLQDIKALLTGLFVQDNVNKDAVTDRLASVETDMPLTLRQHRISATSSSEESSNKGQRQLTVSEFVGWFTGMAACSYAPDLDLQPS", "Group Label": "not fulfilled"}
{"Binder": "B22F6 (peptide) MKLLSSIEQACDICRLKKLKCSKEKPKCAKCLKNNWECRYSPKTKRSPLTRAHLTEVESRLERLEQLFLLIFPREDLDMILKMDSLQDIKALLTGLFVQDNVNKDAVTDRLASVETDMPLTLRQHRISATSSSEESSNKGQRQLTVSEFLSGLEMEVVLWHYGRLDLQPS", "Group Label": "not fulfilled"}

Next, consider the following binder.
Asked: Please indicate whether the reported β-galactosidase activity (yeast two-hybrid), Test of M2H3 (peptide) MKLLSSIEQACDICRLKKLKCSKEKPKCAKCLKNNWECRYSPKTKRSPLTRAHLTEVESRLERLEQLFLLIFPREDLDMILKMDSLQDIKALLTGLFVQDNVNKDAVTDRLASVETDMPLTLRQHRISATSSSEESSNKGQRQLTVSEFRQSFVSEILGGGWLPLDLQPS is strictly below 1.
Given back: not fulfilled

src = patent US20040043420A1
